# Tested on: MKL-2 cells (VP-MCC)
# PROTOCOL: qHTS cell viability (CellTiter-Glo, 72 h; primary and follow-up small molecule screen)
# Assay type: cell-based, human
# MEASUREMENT_PARAMETERS: MIPE library, 11-point DRC, sheet S2E
Where a name gives a salt, the structure may show the parent alone.
ENDPOINT_NAME: MKL2_AUC
Answer field: number only, no words.

-- ask Data request, read-out MKL2_AUC, for `CCNC(=O)Nc1ccc2ncc(Nc3ccc(C)cc3)nc2n1`
-- reply 431.031

-- ask And the next one, CN[C@@H]1[C@H](O)[C@H](NC)[C@H]2O[C@@]3(O)C(=O)C[C@@H](C)O[C@H]3O[C@@H]2[C@H]1O.Cl.Cl [Spectinomycin dihydrochloride] ?
-- reply 323.757

-- ask Now the compound `O=c1cc(-c2ccc(O)cc2)oc2cc(O)cc(O)c12`
-- reply 357.96

-- ask # repeat for `C=C1C(=O)[C@]23[C@H](O)[C@H]1CC[C@H]2[C@@]12CO[C@]3(O)[C@@H](O)[C@@H]1C(C)(C)CC[C@@H]2O`
-- reply 318.538

-- ask Moving on to the next compound: `Cc1c(C)n(Cc2ccc(-c3ccccc3C(=O)O)cc2)c2ccc(C(=O)N[C@@H](C)c3ccc([N+](=O)[O-])cc3)cc12`
-- reply 319.019

-- ask What do we get for `O=C(CCc1ccc(O)cc1)c1c(O)cc(O)cc1O` ?
-- reply 410.273

-- ask Try CN1CCCC(n2nc(Cc3ccc(Cl)cc3)c3ccccc3c2=O)CC1 (stereo not shown) [Azelastine hydrochloride] next.
-- reply 320.643

-- ask Would you mind doing C=CC(=O)Nc1cccc(Nc2nc(NC3CCC(N(C)C)CC3)nc3c2ncn3C(C)C)c1 (stereo not shown) as well?
-- reply 208.594

-- ask Same for `CC(C)(C)OC(=O)Nc1ccc(-c2cc(C(=O)NCCCCCCC(=O)NO)no2)cc1`
-- reply 356.229

-- ask Also, `CC1=C(/C=C/C(C)=C/C=C/C(C)=C\C(=O)O)C(C)(C)CCC1` please.
-- reply 402.656

-- ask Next compound up: COCC1(CO)C(=O)C2CCN1CC2 (stereo not shown)
-- reply 331.652

-- ask // repeat for C=C1/C(=C\C=C2/CCC[C@]3(C)[C@@H]([C@H](C)/C=C/[C@H](C)C(C)C)CC[C@@H]23)C[C@@H](O)C[C@@H]1O [1-alpha-Hydroxyergocalciferol] and report
-- reply 310.498

-- ask Repeat for the following compound: Cc1[nH]c(/C=C2\C(=O)Nc3ccccc32)c(C)c1CCC(=O)O [Orantinib]
-- reply 325.675

-- ask Entry `COc1cc(/C=C/C(=O)CC(=O)/C=C/c2ccc(O)c(OC)c2)ccc1O` please
-- reply 342.595

-- ask Now try CC(=O)SCC(Cc1ccccc1)C(=O)NCC(=O)OCc1ccccc1 (stereo not shown) .
-- reply 282.974

-- ask Subsequent entry: CC[C@@]1(O)C(=O)OCc2c1cc1n(c2=O)Cc2cc3c(CN(C)C)c(O)ccc3nc2-1 [Topotecan HCl]
-- reply 250.703

---

# Tested on: MKL-2 cells (VP-MCC)
# PROTOCOL: qHTS cell viability (CellTiter-Glo, 72 h; primary and follow-up small molecule screen)
# Format: cell-based, human
# MEASUREMENT_PARAMETERS: MKL2, 72h, Log (M) -7.72207
ENDPOINT_NAME: Percent viability (%)
Give the value in % but do not write % after it.

-- ask Form field: reported Percent viability of O=C(Nc1cccc(Cl)c1)Nc1ncc(CCNc2ncnc3ccsc23)s1 [SNS-314, reference compound]
-- reply 52.1

-- ask Proceed to CCS(=O)(=O)c1cccc(-c2cc(C(=O)NC3CCN(C)CC3)c(C)c3[nH]c4ncc(C)cc4c23)c1 [TAK-901, reference compound]
-- reply 44.3

-- ask How about this molecule: CCn1cc(-c2ccnc3[nH]c(-c4cccc(CN(C)C)c4)cc23)c(-c2ccc(NC(=O)N(C)C)cc2)n1 [GSK-1070916A, reference compound]
-- reply 50.1

-- ask Next molecule up: Cc1cc(Nc2cc(N3CCN(C)CC3)nc(Sc3ccc(NC(=O)C4CC4)cc3)n2)[nH]n1 [Tozasertib, reference compound]
-- reply 51.5

---

# Test system: control cell lines (HACAT, HEK293T, CRL-7250, NIH-3T3)
# PROTOCOL: qHTS cell viability, control cell lines as a group (mean AUC, Control.avg)
# Type: cell-based
# MEASUREMENT_PARAMETERS: NPC library; mean AUC of control cell lines
Counter-ions that a name gives are not always drawn.
Assign Control_Avg_AUC to each entry below.
Please reply with the value in numeric form only.

-- ask I have this compound here, Cl.Cl.Fc1ccc(C(OCCN2CCN(CCCc3ccccc3)CC2)c2ccc(F)cc2)cc1 [GBR 12909 dihydrochloride] , and I need its recorded Control_Avg_AUC.
-- reply 444.409

-- ask One more compound: CCCCCCCCCCCCCCCC[N+](C)(C)CC [Ethylhexadecyldimethylammonium bromide]
-- reply 359.474

-- ask Lookup O=C1OC(CCN2CCCCC2)OC1(c1ccccc1)c1ccccc1 (centres unmarked) [Pipoxolan hydrochloride]
-- reply 473.388

-- ask Record: Oc1ccc(O)cc1 [Hydroquinone]
-- reply 487.218

-- ask Also CCCCCC(=O)O[C@]1(C(C)=O)CC[C@H]2[C@@H]3CCC4=CC(=O)CC[C@]4(C)[C@H]3CC[C@@]21C [Hydroxyprogesterone caproate] , if possible.
-- reply 456.027

-- ask Now the compound CN(CC1(C)CCCO1)S(=O)(=O)c1ccc(Cl)c(S(N)(=O)=O)c1 (centres unmarked) [Mefruside]
-- reply 467.688

-- ask Item: Cc1cc(OCCOCC[N+](C)(C)Cc2ccccc2)ccc1C(C)(C)CC(C)(C)C.[Cl-] [Methylbenzethonium chloride]
-- reply 414.956

-- ask Subsequent entry: CNCc1ccccc1.Cl [N-Methylbenzylamine hydrochloride]
-- reply 471.352

-- ask // next record CC[N+]1(CC)CCC(=C(c2ccccc2)c2ccccc2)C1C (centres unmarked) [Prifinium bromide]
-- reply 468.3

-- ask // next record CCOC(=O)[C@@](C)(N)Cc1ccc(O)c(O)c1 [Methyldopate hydrochloride]
-- reply 441.887

-- ask Entry to check: Cc1ccsc1C(=CCCN1CCC[C@@H](C(=O)O)C1)c1sccc1C [Tiagabine hydrochloride]
-- reply 457.564

-- ask Try this compound next: CC[N+](CC)(CC)CCOC(=O)C(C1CCCC1)C1CCCC1 [Diponium bromide]
-- reply 482.732

-- ask Same for C[C@@H]1CN(CCCn2c3ccccc3c3ccccc32)C[C@H](C)N1.Cl.Cl [Rimcazole dihydrochloride]
-- reply 450.496

-- ask Do the same for CCCCOc1ccc(C(=O)CCN2CCCCC2)cc1 [Dyclonine hydrochloride] please
-- reply 461.654

-- ask Another compound to check: O=C(CCN1CCC(c2ccccc2)C1)c1ccc2c(c1)OCCO2 (centres unmarked)
-- reply 461.46

-- ask Okay, and CSc1ccc2c(c1)N(CCC1CCCCN1C)c1ccccc1S2 (centres unmarked) ?
-- reply 459.509

-- ask Proceed to C#C[C@]1(OC(C)=O)CC[C@H]2[C@@H]3CCC4=CC(=NO)CC[C@@H]4[C@H]3CC[C@@]21CC (mixture of isomers) [Norgestimate]
-- reply 460.583

---

# PROTOCOL: qHTS cell viability (CellTiter-Glo, 72 h; primary screen), control cell line
# Assay type: cell-based
# MEASUREMENT_PARAMETERS: human, CRL-7250 cells (control cell line); CRL-7250, Log (M) -6.24494; read-out: Percent viability
ENDPOINT_NAME: viability at 72 h, 569 nM
Numeric answer plus unit only.

-- ask I'd like to know its viability at 72 h, 569 nM. The compound in question is COCCn1c2c([n+](Cc3cnccn3)c1C)C(=O)c1ccccc1C2=O [sepantronium bromide, reference compound]
-- reply -8.6%

---

# System: control cell lines (HACAT, HEK293T, CRL-7250, NIH-3T3)
# PROTOCOL: qHTS cell viability, control cell lines as a group (mean AUC, Control.avg)
# Type: cell-based
# MEASUREMENT_PARAMETERS: MIPE library, mean AUC of control cell lines, sheet S2E
Counter-ions that a name gives are not always drawn.
ENDPOINT_NAME: Control_Avg_AUC
Lab note: write the figure by itself, no unit.

-- ask GET /values?readout=Control_Avg_AUC&item= C=C1/C(=C\C=C2/CCC[C@]3(C)[C@@H]([C@H](C)/C=C/[C@H](C)C(C)C)CC[C@@H]23)C[C@@H](O)C[C@@H]1O [1-alpha-Hydroxyergocalciferol]
-- reply 428.207

-- ask Try this compound next: `CN(C)CC[C@H](CSc1ccccc1)Nc1ccc(S(=O)(=O)NC(=O)c2ccc(N3CCN(Cc4ccccc4-c4ccc(Cl)cc4)CC3)cc2)cc1[N+](=O)[O-]`
-- reply 443.245

-- ask Try the compound `Cc1c(C)n(Cc2ccc(-c3ccccc3C(=O)O)cc2)c2ccc(C(=O)N[C@@H](C)c3ccc([N+](=O)[O-])cc3)cc12`
-- reply 477.269

-- ask Would you mind doing Cc1[nH]c(/C=C2\C(=O)Nc3ccccc32)c(C)c1CCC(=O)O [Orantinib] as well?
-- reply 403.759

-- ask Would you kindly repeat that for `COc1cc(/C=C/C(=O)CC(=O)/C=C/c2ccc(O)c(OC)c2)ccc1O` ?
-- reply 434.883

-- ask Next up: CC(=O)SCC(Cc1ccccc1)C(=O)NCC(=O)OCc1ccccc1 (stereo not shown)
-- reply 471.369

-- ask Please answer likewise for `CC#C[C@]1(O)CC[C@H]2[C@@H]3CCC4=CC(=O)CCC4=C3[C@@H](c3ccc(N(C)C)cc3)C[C@@]21C`
-- reply 448.787

-- ask Try this compound next: `C=C1C(=O)[C@]23[C@H](O)[C@H]1CC[C@H]2[C@@]12CO[C@]3(O)[C@@H](O)[C@@H]1C(C)(C)CC[C@@H]2O`
-- reply 422.25

-- ask Another compound: CC[C@@]1(O)C(=O)OCc2c1cc1n(c2=O)Cc2cc3c(CN(C)C)c(O)ccc3nc2-1 [Topotecan HCl]
-- reply 345.124

-- ask Also check C=CC(=O)Nc1cccc(Nc2nc(NC3CCC(N(C)C)CC3)nc3c2ncn3C(C)C)c1 (stereo not shown)
-- reply 352.686

-- ask // repeat for CC(=O)O[C@]1(C(C)=O)CC[C@H]2[C@@H]3C=C(C)C4=CC(=O)CC[C@]4(C)[C@H]3CC[C@@]21C [Megestrol acetate] and report
-- reply 463.906

-- ask Would you mind doing O=C(CCCCCCC(=O)Nc1cccnc1)NO [Pyroxamide] as well?
-- reply 453.86

-- ask Quick one: `CC1=C(/C=C/C(C)=C/C=C/C(C)=C\C(=O)O)C(C)(C)CCC1`
-- reply 465.51

-- ask Now consider `CCNC(=O)Nc1ccc2ncc(Nc3ccc(C)cc3)nc2n1` .
-- reply 470.814

-- ask Repeat with O=C(CCCCCCC(=O)Nc1ccccc1)NO [Suberoylanilide hydroxamic acid]
-- reply 424.533

-- ask Proceed to `CC1(C)CCC(c2ccc(Cl)cc2)=C(CN2CCN(c3ccc(C(=O)N[S+](=O)([O-])c4ccc(N[C@H](CCN5CCOCC5)CSc5ccccc5)c([S+](=O)([O-])C(F)(F)F)c4)cc3)CC2)C1`
-- reply 461.324
